Tested on: Plasmodium falciparum M18 aspartyl aminopeptidase (PfM18AAP)
experiment: PFM18AAP inhibitors, dose response, selectivity assay for PFM1AAP inhibitor project, biochemical, QFRET, H-Glu-NHMec substrate, set 3 (AID 624165)
experimental.conditions: Recombinant PfM18AAP, H-Glu-NHMec fluorogenic cleavage; series mostly up to 100 µM
The source made the active and inactive calls.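 How the source made its calls: active means inhibition of 30% or more at any tested concentration; inactive means the rest.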

smiles.notation: O=C(NCc1cccc(F)c1)C1CCN(S(=O)(=O)c2ccc(Br)s2)CC1
outcome: inactive

smiles.notation: O=C(NCCc1ccc2c(c1)OCO2)C1CCN(S(=O)(=O)c2cc(Br)c(Br)s2)CC1
outcome: inactive

smiles.notation: O=C(NCc1ccccc1F)C1CCN(S(=O)(=O)c2ccc(Br)cc2)CC1
outcome: inactive

smiles.notation: O=C(NCc1ccc2c(c1)OCO2)C1CCN(S(=O)(=O)c2ccc(Br)s2)CC1
outcome: inactive

smiles.notation: O=C(Nc1ccc2c(c1)OCO2)C1CCN(S(=O)(=O)c2ccc(Br)s2)CC1
outcome: inactive

smiles.notation: O=C(NCc1ccc(F)cc1)C1CCN(S(=O)(=O)c2sccc2Br)CC1
outcome: inactive

smiles.notation: O=C(NCc1cccc(F)c1)C1CCN(S(=O)(=O)c2ccc(Br)cc2)CC1
outcome: inactive

smiles.notation: O=C(NCc1ccc2c(c1)OCO2)C1CCN(S(=O)(=O)c2ccc(Br)cc2)CC1
outcome: inactive

smiles.notation: O=C(NCc1ccc(F)cc1)C1CCN(S(=O)(=O)c2ccc(Cl)s2)CC1
outcome: inactive

smiles.notation: O=C(NCc1cccc(F)c1)C1CCN(S(=O)(=O)c2ccc(Cl)s2)CC1
outcome: inactive

smiles.notation: O=C(NCCc1ccc2c(c1)OCO2)C1CCN(S(=O)(=O)c2sccc2Br)CC1
outcome: inactive

smiles.notation: O=C(NCc1ccccc1F)C1CCN(S(=O)(=O)c2sccc2Br)CC1
outcome: inactive

smiles.notation: O=C(NCc1ccc2c(c1)OCO2)C1CCN(S(=O)(=O)c2sccc2Br)CC1
outcome: inactive

smiles.notation: O=C(Nc1ccc2c(c1)OCO2)C1CCN(S(=O)(=O)c2sccc2Br)CC1
outcome: inactive

smiles.notation: O=C(NCc1ccc2c(c1)OCO2)C1CCN(S(=O)(=O)c2cc(Br)c(Br)s2)CC1
outcome: inactive

smiles.notation: O=C(NCc1cccc(F)c1)C1CCN(S(=O)(=O)c2sccc2Br)CC1
outcome: inactive

smiles.notation: O=C(NCc1ccccc1F)C1CCN(S(=O)(=O)c2cc(Br)c(Br)s2)CC1
outcome: inactive

smiles.notation: O=C(Nc1ccc2c(c1)OCO2)C1CCN(S(=O)(=O)c2ccc(Br)cc2)CC1
outcome: inactive

smiles.notation: O=C(NCCc1ccc2c(c1)OCO2)C1CCN(S(=O)(=O)c2ccc(Br)s2)CC1
outcome: inactive
